- target-of-assay: Cereblon/Casein kinase I alpha (Homo sapiens) (UniProt P48729+Q96SW2)
- Sequence (P48729 2-337 limits assumed): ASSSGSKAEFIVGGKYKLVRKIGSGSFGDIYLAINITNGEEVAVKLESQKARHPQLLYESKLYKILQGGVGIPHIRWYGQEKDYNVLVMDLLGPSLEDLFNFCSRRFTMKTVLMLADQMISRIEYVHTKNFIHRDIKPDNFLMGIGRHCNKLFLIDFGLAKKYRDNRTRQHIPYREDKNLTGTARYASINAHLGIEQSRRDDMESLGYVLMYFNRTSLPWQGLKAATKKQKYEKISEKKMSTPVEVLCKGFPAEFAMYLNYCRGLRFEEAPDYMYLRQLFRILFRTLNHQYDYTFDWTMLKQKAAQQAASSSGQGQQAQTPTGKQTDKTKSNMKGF
- Sequence (Q96SW2 whole entry partner): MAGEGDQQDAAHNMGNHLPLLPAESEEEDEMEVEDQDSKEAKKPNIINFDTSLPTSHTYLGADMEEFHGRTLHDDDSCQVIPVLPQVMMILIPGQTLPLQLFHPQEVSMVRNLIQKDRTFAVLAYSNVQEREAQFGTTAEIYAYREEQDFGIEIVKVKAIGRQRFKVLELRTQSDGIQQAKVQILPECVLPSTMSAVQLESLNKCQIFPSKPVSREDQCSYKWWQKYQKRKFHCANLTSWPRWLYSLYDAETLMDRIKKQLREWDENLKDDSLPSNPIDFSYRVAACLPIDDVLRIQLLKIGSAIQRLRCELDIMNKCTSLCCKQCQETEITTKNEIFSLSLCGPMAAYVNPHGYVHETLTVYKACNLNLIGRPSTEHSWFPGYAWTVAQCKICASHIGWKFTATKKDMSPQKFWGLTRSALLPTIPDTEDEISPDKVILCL
- method-description: Protac activity at CRBN/CK1alpha (unknown origin) transfected in HEK293T cells at 100 nM incubated for 24 hrs by flow cytometry analysis relative to control
- Type: cell-based
Known Activity of a selection of compounds
Please give a number only; it is taken to be in %.

Here's what some known entries look like.
COc1cccc2c1OCC(C(=O)Nc1ccc3c(c1)CN(C1CCC(=O)NC1=O)C3=O)=C2 (centres undefined): 80
O=C1CCC(N2Cc3cc(NC(=O)c4cccc(C(=O)c5ccccc5)c4)ccc3C2=O)C(=O)N1 (centres undefined): 64
O=C1CCC(N2Cc3cc(NC(=O)C4=Cc5ccccc5OC4)ccc3C2=O)C(=O)N1 (centres undefined): 66
COc1cccc2c1C=C(C(=O)Nc1ccc3c(c1)CN(C1CCC(=O)NC1=O)C3=O)CO2 (centres undefined): 59
COc1ccc2cc(C(=O)Nc3ccc4c(c3)CN(C3CCC(=O)NC3=O)C4=O)ccc2c1 (centres undefined): 70

Query string: Item under review: O=C1CCC(N2Cc3cc(NC(=O)c4ccc5c(c4)OCCO5)ccc3C2=O)C(=O)N1 (centres undefined) . Reported Activity?
Result string: 36

Query string: What measured Activity goes with O=C1CCC(N2Cc3cc(NC(=O)Cc4cccc5ccccc45)ccc3C2=O)C(=O)N1 (centres undefined) ?
Result string: 64

Query string: Given the compound O=C1CCC(N2Cc3cc(NC(=O)c4ccc5ncsc5c4)ccc3C2=O)C(=O)N1 (centres undefined) , what is its reported Activity?
Result string: 33

Query string: Need Activity, item O=C(/C=C/c1ccccc1)Nc1ccc2c(c1)CN(C1CCC(=O)NC1=O)C2=O (centres undefined)
Result string: 60

Taken from ChEMBL document CHEMBL5375992.
